Cited source: the supplement of paper PMC10567573

B1: CDC25B (parent)
chain: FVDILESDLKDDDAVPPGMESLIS

- Variants of: B1
- assay.summary: protein stability index of a GFP-peptide fusion (GPS, HEK-293T) (PSI 1-6); higher = more stable;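 note: lentivirally expressed fusions sorted by FACS into six bins by GFP to DsRed ratio, PSI derived from sequencing read proportions per bin multiplied by bin number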
- condition: c terminus: a fixed tail appended
measured.parameter: protein stability index

>>> recorded_result("FVDILESDLKDDDAVPPGDESLIS [M19D]")
3.48
>>> recorded_result("FVDILESDLKDDDAVPPGMESCIS [L22C]")
3.15
>>> recorded_result("FVDILYSDLKDDDAVPPGMESLIS [E6Y]")
2.33
>>> recorded_result("GVDILESDLKDDDAVPPGMESLIS [F1G]")
5.23
>>> recorded_result("FVDILESDLKDMDAVPPGMESLIS [D12M]")
2.08
>>> recorded_result("FVDILESDLKDDDMVPPGMESLIS [A14M]")
3
>>> recorded_result("FVDILESDLFDDDAVPPGMESLIS [K10F]")
2.63
>>> recorded_result("FVDILESDLKDDDAVPPGCESLIS [M19C]")
2.91
>>> recorded_result("FVDILESDLKDDDAVPPGRESLIS [M19R]")
2.55
>>> recorded_result("FVDILESDLKDDDAVVPGMESLIS [P16V]")
3.07
>>> recorded_result("FVDILESDLKDDDAVPPNMESLIS [G18N]")
3.23
>>> recorded_result("FVDILESDLKDDDALPPGMESLIS [V15L]")
2.78
>>> recorded_result("FVDILESDLYDDDAVPPGMESLIS [K10Y]")
2.59
>>> recorded_result("FVDILESDLKDDDAVPPGMESHIS [L22H]")
3.52
>>> recorded_result("FVDILESDLKDDDAHPPGMESLIS [V15H]")
3.04
>>> recorded_result("FVDILESCLKDDDAVPPGMESLIS [D8C]")
2.15
>>> recorded_result("FVDILESDLKDDDAVYPGMESLIS [P16Y]")
2.82
>>> recorded_result("FVDILESDLKDDDAVPPFMESLIS [G18F]")
2.26
>>> recorded_result("FCDILESDLKDDDAVPPGMESLIS [V2C]")
3.65
>>> recorded_result("FVDILESDLNDDDAVPPGMESLIS [K10N]")
2.87
>>> recorded_result("FVDILESDLKDDDAVPPGMESTIS [L22T]")
3.65
>>> recorded_result("FVDILESHLKDDDAVPPGMESLIS [D8H]")
2.79
